This collection of values is drawn from PubChem BioAssay (NCI).

# Test system: CCRF-CEM leukemia
# assay.comment: NCI tumour cell line growth inhibition, 48 h
quantity.name: TGI

**Query** For the compound COC(=O)[C@@]1(Cc2ccc(OC(C)=O)cc2)Cc2cc3ccccc3n2N1 , give its reported TGI.
**Result** > 100 µM

**Query** Give a short answer stating reported TGI for CN1CN(c2ccccc2)C2(CCN(C(=O)OC(C)(C)C)CC2)C1=O .
**Result** > 100 µM

**Query** Answer with the recorded TGI of COc1ccc(C2CC(=O)Nc3c2c(C)nn3-c2nc3ccccc3[nH]2)cc1OC (centres undefined) only.
**Result** > 96.3 µM

The record that follows has no TGI shown yet.
**Query** Assign TGI to the following record: CCOC(=O)C1=C(C)NC(c2ccccc2)=C(C(=O)OCc2ccccc2)C1C#Cc1ccccc1 (centres undefined)
**Result** > 100 µM
